- Target under test: TGF-beta1 (hTGF-beta1) (Homo sapiens, UniProt P01137 P01137:279-390)
- Sequence (P01137 279-390, one chain of several): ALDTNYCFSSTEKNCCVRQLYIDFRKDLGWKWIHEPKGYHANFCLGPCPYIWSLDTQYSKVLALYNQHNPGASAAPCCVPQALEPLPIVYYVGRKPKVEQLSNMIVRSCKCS
- Assay overview: filter; monophasic
- Measurement context: tags: R&D Systems; biotinylated form (NFTG0) used for BIAcore; chain copies: 2
// reported Kd for each item listed

Below, 2 binders whose answers are already recorded.
Task: Identify Kd associated with the binder 40-29 (ssRNA, 2'-F C and U) RNA: GGGAGGACGAUGCGGGACCCUUUUCUGCGAUUCAACUCGUACGUCUUCUCACGUGCAGACGACUCGCCCGA
Output: 10.9 nM

Task: Specify measured Kd for 40-08 (ssRNA, 2'-F C and U) RNA: GGGAGGACGAUGCGGCGCAAGGUUACGCCGUCGGACCCUGCUGCCAACAUCCUCCCAGACGACUCGCCCGA .
Output: 15.4 nM

--- query ---
Task: Given 30-22 (ssRNA, 2'-F C and U) RNA: GGGAGGACGAUGCGGUUAACCGUAAAGACGGCAUGAUGUUUUCCGCAGACGACUCGCCCGA , respond with its Kd.
Output: 2.47 nM

Attribution: patent US6124449
